# Species: Homo sapiens
# PROTOCOL_DETAILS: Selectivity ratio of IC50 for inhibition of PI3Kalpha (unknown origin) to IC50 for inhibition of PI3Kgamma (unknown origin)
ENDPOINT_NAME: Ratio IC50

1) Cc1cc(-c2ccn3nc(N)c(C(=O)N[C@@H]4CC[C@@H](O)C4)c3n2)cc2c1C(=O)N([C@@H](C)C1CC1)C2 :: 33
2) Cc1cc(-c2ccn3nc(N)c(C(=O)NC4COC4)c3n2)cc2c1C(=O)N([C@@H](C)C1CC1)C2 :: 464
3) CCS(=O)(=O)c1cc(-c2ccn3nc(N)c(C(=O)NC4CC4)c3n2)cc2c1C(=O)N([C@@H](C)C1CC1)C2 :: 170
4) C[C@@H](C1CC1)N1Cc2cc(-c3ccn4nc(N)c(C(=O)NC5CC5)c4n3)cc(C(F)(F)F)c2C1=O :: 443

====

Entries and their hepatocyte CLint at 0.5 µM
# PROTOCOL_DETAILS: Metabolic stability in human hepatocytes assessed as intrinsic clearance per 10^6 cells at 0.5 uM by LC-MS/MS analysis
# Assay type: ADME, cell-based, Hepatocyte
# CONDITION_NOTES: read-out: CLH
ENDPOINT_NAME: hepatocyte CLint at 0.5 µM

1) C[C@@H](C1CC1)N1Cc2cc(-c3ccn4nc(N)c(C(=O)NC5CC5)c4n3)cc(NS(C)(=O)=O)c2C1=O :: < 1.2 µL/min/1e6 cells
2) C[C@@H](C1CC1)N1Cc2cc(-c3ccn4nc(N)c(C(=O)NC5CC5)c4n3)cc(C(F)(F)F)c2C1=O :: < 1.2 µL/min/1e6 cells
3) Cc1cc(-c2ccn3nc(N)c(C(=O)N[C@H]4CC[C@@](C)(O)CC4)c3n2)cc2c1C(=O)N([C@@H](C)C1CC1)C2 :: < 1.2 µL/min/1e6 cells

====

# Species: Homo sapiens
# PROTOCOL_DETAILS: Selectivity ratio of IC50 for inhibition of PI3Kdelta (unknown origin) to IC50 for inhibition of PI3Kgamma (unknown origin)
Cut-off 300 on Ratio IC50, inclusive. At or above means MET; below means NOT MET.

1. C[C@@H](C1CC1)N1Cc2cc(-c3ccn4nc(N)c(C(=O)NC5CC5)c4n3)cc(S(=O)(=O)C3CC3)c2C1=O :: NOT MET
2. COc1cc(-c2ccn3nc(N)c(C(=O)NC4CC4)c3n2)cc2c1C(=O)N([C@@H](C)C1CC1)C2 :: NOT MET
3. CC(C)c1cc(-c2ccn3nc(N)c(C(=O)NC4CC4)c3n2)cc2c1C(=O)N([C@@H](C)C1CC1)C2 :: MET
4. Cc1cc(-c2ccn3nc(N)c(C(=O)N[C@H]4CNC(=O)C4)c3n2)cc2c1C(=O)N([C@@H](C)C1CC1)C2 :: MET
5. C[C@@H](C1CC1)N1Cc2cc(-c3ccn4nc(N)c(C(=O)NC5CC5)c4n3)cc(OC(F)F)c2C1=O :: MET
6. CNS(=O)(=O)c1cc(-c2ccn3nc(N)c(C(=O)NC4CC4)c3n2)cc2c1C(=O)N([C@@H](C)C1CC1)C2 :: NOT MET
7. Cc1cc(-c2ccn3nc(N)c(C(=O)N[C@H]4CC[C@](C)(O)CC4)c3n2)cc2c1C(=O)N([C@@H](C)C1CC1)C2 :: NOT MET
8. CCN1Cc2cc(-c3ccn4nc(N)c(C(=O)NC5CC5)c4n3)cc(C)c2C1=O :: NOT MET
9. Cc1cc(-c2ccn3nc(N)c(C(=O)NC4CCC4)c3n2)cc2c1C(=O)N([C@@H](C)C1CC1)C2 :: MET
10. CC[C@H](N1Cc2cc(-c3ccn4nc(N)c(C(=O)NC5CC5)c4n3)cc(NS(C)(=O)=O)c2C1=O)C(F)(F)F :: MET
11. Cc1cc(-c2ccn3nc(N)c(C(=O)N[C@H]4CC[C@@](C)(O)CC4)c3n2)cc2c1C(=O)N([C@@H](C)C1CC1)C2 :: MET
12. C[C@H](N1Cc2cc(-c3ccn4nc(N)c(C(=O)N[C@@H](CO)C5CC5)c4n3)cc(Cl)c2C1=O)C(F)(F)F :: MET
13. CCS(=O)(=O)c1cc(-c2ccn3nc(N)c(C(=O)NC4CC4)c3n2)cc2c1C(=O)N([C@@H](C)C1CC1)C2 :: NOT MET
14. CS(=O)(=O)Nc1cc(-c2ccn3nc(N)c(C(=O)NC4CC4)c3n2)cc2c1C(=O)N([C@@H](C1CC1)C(F)(F)F)C2 :: MET
15. CNS(=O)(=O)c1cc(-c2ccn3nc(N)c(C(=O)N[C@H]4CC[C@](C)(O)CC4)c3n2)cc2c1C(=O)N([C@@H](C)C(F)(F)F)C2 :: NOT MET

====

# Species: Homo sapiens
# PROTOCOL_DETAILS: Selectivity ratio of IC50 for inhibition of PI3Kalpha (unknown origin) to IC50 for inhibition of PI3Kgamma (unknown origin)
Item-by-item account of Ratio IC50
ENDPOINT_NAME: Ratio IC50

1) C[C@H](N1Cc2cc(-c3ccn4nc(N)c(C(=O)N[C@@H](CO)C5CC5)c4n3)cc(C3CC3)c2C1=O)C(F)(F)F :: > 3970
2) Cc1cc(-c2ccn3nc(N)c(C(=O)N[C@H]4CC[C@H](N)CC4)c3n2)cc2c1C(=O)N([C@@H](C)C1CC1)C2 :: > 4960
3) C[C@H](N1Cc2cc(-c3ccn4nc(N)c(C(=O)N[C@@H](CO)C5CC5)c4n3)cc(Cl)c2C1=O)C(F)(F)F :: > 3140
4) Cc1cc(-c2ccn3nc(N)c(C(=O)N[C@@H](CO)C4CC4)c3n2)cc2c1C(=O)N([C@@H](C)C1CC1)C2 :: > 3440

====

Quick reference for hepatocyte CLint at 0.5 µM among some molecules
# PROTOCOL_DETAILS: Metabolic stability in human hepatocytes assessed as intrinsic clearance per 10^6 cells at 0.5 uM by LC-MS/MS analysis
# Type: ADME, cell-based, Hepatocyte
# CONDITION_NOTES: read-out: CLH
ENDPOINT_NAME: hepatocyte CLint at 0.5 µM

1. C[C@H](N1Cc2cc(-c3ccn4nc(N)c(C(=O)NC5CC5)c4n3)cc(NS(C)(=O)=O)c2C1=O)C(F)(F)F :: < 1.2 µL/min/1e6 cells
2. C[C@@H](C1CC1)N1Cc2cc(-c3ccn4nc(N)c(C(=O)N[C@H]5CC[C@@](C)(O)CC5)c4n3)cc(OC(F)F)c2C1=O :: < 1.2 µL/min/1e6 cells
3. CC(C)c1cc(-c2ccn3nc(N)c(C(=O)NC4CC4)c3n2)cc2c1C(=O)N([C@@H](C)C1CC1)C2 :: < 1.2 µL/min/1e6 cells
